experiment: Metabolic stability in mouse liver microsomes (MLM); assay type: in vitro ADME; details: MLM (CD-1), 1 μM, 0.50 mg protein per mL
Labelling: t1/2 reported below 1 min becomes met; at or above becomes not met.

Problem: Consider the compound CCN(CC)C(=O)[C@H]1C=C2c3cccc4[nH]cc(c34)C[C@H]2N(CCCF)C1 . Is its t1/2 strictly less than 1 min?
Solution: not met

###

target: 5-HT1A receptor (Homo sapiens, UniProt P08908); construct: host or cells: CHO cells; assay: cell-based; conditions: Ca^2+ flux, agonist; read-out: 5-HT1A EC50
Sequence (P08908 whole entry): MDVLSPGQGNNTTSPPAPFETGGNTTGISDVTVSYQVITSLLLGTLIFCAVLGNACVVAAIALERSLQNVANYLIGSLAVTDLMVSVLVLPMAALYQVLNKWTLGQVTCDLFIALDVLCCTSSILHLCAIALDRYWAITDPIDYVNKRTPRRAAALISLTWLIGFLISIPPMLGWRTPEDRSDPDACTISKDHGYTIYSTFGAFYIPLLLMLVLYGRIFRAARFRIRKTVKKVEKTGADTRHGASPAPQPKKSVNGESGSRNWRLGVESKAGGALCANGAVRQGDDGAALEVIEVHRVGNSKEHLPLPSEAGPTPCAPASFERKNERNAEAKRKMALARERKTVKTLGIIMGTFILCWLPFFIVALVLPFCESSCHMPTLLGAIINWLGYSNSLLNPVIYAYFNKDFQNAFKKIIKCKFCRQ
pEC50: −log10 of the molar value.
Would you please tag the item t when its pEC50 is 8 or above, and f when it is below?

Would you please look over these solved cases?
[
  {
    "compound": "C=CCN1C[C@H](C(=O)N[C@H](C)CC)C=C2c3cccc4[nH]cc(c34)C[C@H]21",
    "group-label": "t"
  },
  {
    "compound": "CC[C@@H](C)NC(=O)[C@@H]1C=C2c3cccc4[nH]cc(c34)C[C@H]2N(CCC(F)(F)F)C1",
    "group-label": "f"
  },
  {
    "compound": "C=CCN1C[C@H](C(=O)N2[C@@H](C)C[C@@H]2C)C=C2c3cccc4[nH]cc(c34)C[C@H]21",
    "group-label": "t"
  }
]

Problem: Record CC[C@@H](C)NC(=O)[C@H]1C=C2c3cccc4[nH]cc(c34)C[C@H]2N(C)C1 ; criterion: pEC50 no lower than 8. Met?
Solution: f

Problem: Record CCN(CC)C(=O)[C@@H]1C=C2c3cccc4[nH]c(Br)c(c34)C[C@H]2N(CCC(F)(F)F)C1 ; criterion: pEC50 no lower than 8. Met?
Solution: f

Problem: Record CCN(CC)C(=O)[C@@H]1C=C2c3cccc4[nH]cc(c34)C[C@H]2N(Cc2cccc(OC)c2)C1 ; criterion: pEC50 no lower than 8. Met?
Solution: f

Problem: Record CCN(CC)C(=O)[C@@H]1C=C2c3cccc4c3C(CN4)C[C@H]2N(C)C1 (mixture of isomers) ; criterion: pEC50 no lower than 8. Met?
Solution: f

Problem: Record CCN(CC)C(=O)[C@@H]1C=C2c3cccc4[nH]cc(c34)C[C@H]2N(CCc2ccc(OC)cc2)C1 ; criterion: pEC50 no lower than 8. Met?
Solution: f

Problem: Record CCCN1C[C@@H](C(=O)N[C@H](C)CC)C=C2c3cccc4[nH]cc(c34)C[C@H]21 ; criterion: pEC50 no lower than 8. Met?
Solution: f

Problem: Record CN1C[C@H](C(=O)N(CCF)CCF)C=C2c3cccc4[nH]cc(c34)C[C@H]21 ; criterion: pEC50 no lower than 8. Met?
Solution: t

Problem: Record CCN(CC)C(=O)[C@@H]1C=C2c3cccc4[nH]cc(c34)C[C@H]2N(CCCF)C1 ; criterion: pEC50 no lower than 8. Met?
Solution: f

Problem: Record CCN(CC)C(=O)[C@@H]1C=C2c3cccc4[nH]cc(c34)C[C@H]2N(Cc2ccc(OC)cc2)C1 ; criterion: pEC50 no lower than 8. Met?
Solution: f

Problem: Record CCN(CC)C(=O)[C@@H]1C=C2c3cccc4[nH]cc(c34)C[C@H]2N(Cc2ccccc2OC)C1 ; criterion: pEC50 no lower than 8. Met?
Solution: f

Problem: Record CCCN1C[C@H](C(=O)N2[C@@H](C)C[C@@H]2C)C=C2c3cccc4[nH]c(Br)c(c34)C[C@H]21 ; criterion: pEC50 no lower than 8. Met?
Solution: f

###

EC50 values for the compounds below.
biological target: UniProt P08913; experiment: FLIPR Ca^2+ flux agonist assay at Alpha2A; format: cell-based
Sequence (P08913 whole entry): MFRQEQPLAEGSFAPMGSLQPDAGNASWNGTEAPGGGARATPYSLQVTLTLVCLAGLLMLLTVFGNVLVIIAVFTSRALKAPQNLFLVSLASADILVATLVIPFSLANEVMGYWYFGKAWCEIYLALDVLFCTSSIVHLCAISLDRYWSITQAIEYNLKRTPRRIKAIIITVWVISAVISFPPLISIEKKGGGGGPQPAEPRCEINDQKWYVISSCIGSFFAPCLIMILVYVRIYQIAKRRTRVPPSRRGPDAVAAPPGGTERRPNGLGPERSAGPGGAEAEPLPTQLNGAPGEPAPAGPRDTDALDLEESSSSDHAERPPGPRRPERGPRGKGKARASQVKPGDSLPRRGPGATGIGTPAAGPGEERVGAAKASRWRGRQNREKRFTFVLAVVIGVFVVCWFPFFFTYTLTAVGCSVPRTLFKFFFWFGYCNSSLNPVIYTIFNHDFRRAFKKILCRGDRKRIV
Answer format: numeric, nM implied, no suffix.

[
  {
    "molecular-string": "CCN(CC)C(=O)[C@@H]1C=C2c3cccc4[nH]cc(c34)C[C@H]2N(CCCF)C1",
    "value-measured": 1000
  }
]

Problem: Hello, please tell me recorded EC50 for this one: CCCN1C[C@H](C(=O)N(CC)CC)C=C2c3cccc4[nH]cc(c34)C[C@H]21
Solution: 42.2

Problem: Hello, please tell me recorded EC50 for this one: CCCN1C[C@H](C(=O)N[C@H](C)CC)C=C2c3cccc4[nH]cc(c34)C[C@H]21
Solution: 3640

Problem: Hello, please tell me recorded EC50 for this one: CCCN1C[C@H](C(=O)N2[C@@H](C)C[C@@H]2C)C=C2c3cccc4[nH]cc(c34)C[C@H]21
Solution: 1080

###

pEC50 values for the compounds below.
molecular target: 5-HT1A receptor (Homo sapiens, UniProt P08908); construct: host or cells: CHO cells; assay: cell-based; conditions: Ca^2+ flux, agonist; read-out: 5-HT1A EC50
Scale note: pEC50 = -log10(concentration in M).

In the examples that follow, each entry is paired with its recorded pEC50.
[
  {
    "molecular-string": "CCCN1C[C@H](C(=O)N(CC)CC)C=C2c3cccc4[nH]cc(c34)C[C@H]21",
    "study-system": "5-HT1A receptor (Homo sapiens, UniProt P08908)",
    "pEC50": 7.35
  },
  {
    "molecular-string": "CCCN1C[C@H](C(=O)N2[C@@H](C)C[C@@H]2C)C=C2c3cccc4[nH]cc(c34)C[C@H]21",
    "study-system": "5-HT1A receptor (Homo sapiens, UniProt P08908)",
    "pEC50": 8.23
  },
  {
    "molecular-string": "CCC[C@@H](C)NC(=O)[C@@H]1C=C2c3cccc4[nH]cc(c34)C[C@H]2N(CCC)C1",
    "study-system": "5-HT1A receptor (Homo sapiens, UniProt P08908)",
    "pEC50": 7.89
  }
]

Problem: Name the recorded pEC50 of CCN(CC)C(=O)[C@@H]1C=C2c3cccc4[nH]cc(c34)C[C@H]2N(CCC(F)(F)F)C1 , assay system 5-HT1A receptor (Homo sapiens, UniProt P08908).
Solution: 5.67

###

molecular target: 5-HT1A receptor (Homo sapiens, UniProt P08908); construct: host or cells: CHO cells; assay: cell-based; details: Ca^2+ flux, agonist; read-out: 5-HT1A EC50
Labelling: EC50 reported below 300 nM becomes label 1; at or above becomes label 0.

[
  {
    "molecule": "CCN(CC)C(=O)[C@@H]1C=C2c3cccc4[nH]cc(c34)C[C@H]2N(CC2CC2)C1",
    "group-label": "label 1"
  },
  {
    "molecule": "CCCN1C[C@H](C(=O)N(CC)CC)C=C2c3cccc4c3C(CN4)C[C@H]21 (mixture of isomers)",
    "group-label": "label 1"
  }
]

Problem: Consider the molecule C[C@H]1C[C@H](C)N1C(=O)[C@@H]1C=C2c3cccc4[nH]cc(c34)C[C@H]2N(CCCF)C1 . Is its EC50 strictly less than 300 nM?
Solution: label 1

Problem: Consider the molecule CCN(CC)C(=O)[C@@H]1C=C2c3cccc4[nH]cc(c34)C[C@H]2N(CCF)C1 . Is its EC50 strictly less than 300 nM?
Solution: label 1

Problem: Consider the molecule CCC[C@@H](C)NC(=O)[C@H]1C=C2c3cccc4[nH]cc(c34)C[C@H]2N(C)C1 [Int17a] . Is its EC50 strictly less than 300 nM?
Solution: label 1

Problem: Consider the molecule CCCN1C[C@H](C(=O)N[C@H](C)CC)C=C2c3cccc4[nH]c(Br)c(c34)C[C@H]21 . Is its EC50 strictly less than 300 nM?
Solution: label 0

Problem: Consider the molecule CCN(CC)C(=O)[C@@H]1C=C2c3cccc4[nH]cc(c34)C[C@H]2N(CCc2ccccc2OC)C1 . Is its EC50 strictly less than 300 nM?
Solution: label 0

###

assay: Metabolic stability in human liver microsomes (HLM); assay type: in vitro ADME; settings: both sexes, human, pooled human liver microsomes, pH 7.4, 0.50 mg protein per mL
half-life at 1 μM values for the molecules below.
Answer format: numeric, min implied, no suffix.

[
  {
    "molecule": "CCC(CC)NC(=O)[C@@H]1C=C2c3cccc4[nH]c(Br)c(c34)C[C@H]2N(C)C1",
    "value-measured": 9
  },
  {
    "molecule": "CCN(CC)C(=O)[C@@H]1C=C2c3cccc4[nH]cc(c34)C[C@H]2N(CCF)C1",
    "value-measured": 31.7
  }
]

Turning now to a further molecule:
Problem: Hello, please tell me recorded half-life at 1 μM for this one: CCCN1C[C@H](C(=O)N(CC)CC)C=C2c3cccc4c3C(CN4)C[C@H]21 (mixture of isomers)
Solution: 32.8

###

experiment: Metabolic stability in rat liver microsomes (RLM); conditions: both, rat, pooled rat liver microsomes, pH 7.4
quantity-measured: half-life at 1 μM

Problem: Hello, please tell me recorded half-life at 1 μM for this one: CC[C@@H](C)NC(=O)[C@@H]1C=C2c3cccc4[nH]cc(c34)C[C@H]2N(CC)C1
Solution: 19.3 min
